system: DU-145 prostate; assay: NCI tumour cell line growth inhibition, 48 h; in the data active means GI50 below about 0.43 µM; inactive means the rest
Possible outcomes: active, inactive

{"compound": "C[C@]12CC[C@@H]3c4ccc(O)cc4C(O)C[C@H]3[C@@H]1CCC2=O (some centres undefined)", "assigned-category": "inactive"}
{"compound": "COC(=O)C1=C(C(=O)OC)SC(=C(Cl)C(=S)Sc2ccccc2N)S1", "assigned-category": "inactive"}
{"compound": "CSc1ccc(/C=C2\\C=C(CC(=O)NCc3ccc(C(=O)c4ccccc4)cc3)c3cc(F)ccc32)cc1", "assigned-category": "active"}
{"compound": "CC(C)[C@H]1C(=O)N[C@@H](CCCN=C(N)N)C(=O)NCC(=O)N[C@@H](CC(=O)O)C(=O)N[C@H](Cc2ccccc2)C(=O)N1C", "assigned-category": "inactive"}

----------
system: U251 CNS; experiment: NCI tumour cell line growth inhibition, 48 h
The entries below come with measured TGI values attached.

{"molecule": "O=C(NCCCNCCNC(=O)c1cc(-c2ccccc2)nc2ccccc12)c1cc(-c2ccccc2)nc2ccccc12", "assay-target": "U251 CNS", "TGI": "3.24 µM"}
{"molecule": "Cc1ccc(S(=O)(=O)N=Nc2c(O)[nH]c3c(Cl)cc(Cl)cc23)cc1", "assay-target": "U251 CNS", "TGI": "> 100 µM"}
{"molecule": "Nc1cc(N2CCCC2)nc(=O)n1Cc1ccccc1", "assay-target": "U251 CNS", "TGI": "> 100 µM"}
{"molecule": "C[N+](C)(C)c1ncnc2c1ncn2C1CCCCO1 (stereo not drawn)", "assay-target": "U251 CNS", "TGI": "> 100 µM"}
{"molecule": "O=c1[nH]c(N/N=C\\C(O)C(O)C(O)CO)nc2ccccc12 (stereo not drawn)", "assay-target": "U251 CNS", "TGI": "> 100 µM"}
{"molecule": "O=C(O)CSc1ncccc1[N+](=O)[O-]", "assay-target": "U251 CNS", "TGI": "> 100 µM"}
{"molecule": "CSc1cc(N)ccc1N=Nc1ccc(S(N)(=O)=O)cc1", "assay-target": "U251 CNS", "TGI": "> 100 µM"}
{"molecule": "COc1cc(Cn2c(-c3nonc3N)nc3ccccc32)ccc1C", "assay-target": "U251 CNS", "TGI": "15.6 µM"}
{"molecule": "C=C1C(=O)O[C@H]2C[C@@]3(C)[C@H](O)CCC(=C)[C@@H]3[C@@H](OC(C)=O)[C@H]12", "assay-target": "U251 CNS", "TGI": "> 71.3 µM"}
{"molecule": "CNC(=S)N/N=C/c1ccc([N+](=O)[O-])s1", "assay-target": "U251 CNS", "TGI": "> 10 µM"}
{"molecule": "CCC(c1cccc(O)c1)C(CC)c1cccc(O)c1 (stereo not drawn)", "assay-target": "U251 CNS", "TGI": "14.7 µM"}
{"molecule": "Fc1cccc(Cl)c1/C=N\\N=C1c2ccccc2-c2ccccc21", "assay-target": "U251 CNS", "TGI": "> 100 µM"}
{"molecule": "CCCCOCn1c(=O)[nH]c(=O)c2cc(Br)ccc21", "assay-target": "U251 CNS", "TGI": "> 100 µM"}
{"molecule": "CC(=O)c1cc2ccccc2n(O)c1=N", "assay-target": "U251 CNS", "TGI": "> 100 µM"}
{"molecule": "COc1ccc(C(=O)N2c3ccccc3Sc3ccccc32)c(C(F)(F)F)c1", "assay-target": "U251 CNS", "TGI": "> 100 µM"}
{"molecule": "C[C-](O)O.O/C(=C\\[C-](O)c1ccccc1)c1ccccc1.O/C(=C\\[C-](O)c1ccccc1)c1ccccc1.[Nd+3] (stereo not drawn)", "assay-target": "U251 CNS", "TGI": "22.1 µM"}
{"molecule": "Cn1c2ccccc2c2c3c(c4c5ccccc5n(C)c4c21)C(=O)c1ccccc1C3=O", "assay-target": "U251 CNS", "TGI": "45.9 µM"}
{"molecule": "NNc1nncn1N", "assay-target": "U251 CNS", "TGI": "> 100 µM"}
{"molecule": "C=C1C(=O)OC2/C=C(\\C=O)CC/C=C(\\C)C(O)C[C@@H]12 (stereo partly drawn)", "assay-target": "U251 CNS", "TGI": "35.4 µM"}
{"molecule": "O=Cc1ccc(-c2cccs2)s1", "assay-target": "U251 CNS", "TGI": "> 93.8 µM"}
{"molecule": "O=C(N[C@H]1c2ccsc2/C(=N/O)[C@H]1O)C(F)(F)F", "assay-target": "U251 CNS", "TGI": "> 100 µM"}
{"molecule": "CN(Cc1cnc2nc(N)nc(N)c2n1)c1ccc(C(=O)NC(CCC(=O)NC(P(=O)(O)O)P(=O)(O)O)C(=O)O)cc1 (stereo not drawn)", "assay-target": "U251 CNS", "TGI": "> 100 µM"}
{"molecule": "O=C1C(Br)=C(c2ccccc2)S(=O)c2ccccc21 (stereo not drawn)", "assay-target": "U251 CNS", "TGI": "22.8 µM"}

----------
system: SN12C renal; experiment: NCI tumour cell line growth inhibition, 48 h
Reported TGI is given for each of the following compounds.

{"compound": "COc1ccc(-c2cn[nH]c2-c2cc(OC)c3c(c2)OCCO3)cc1", "TGI": "73.7 µM"}
{"compound": "COc1cc(/C=C2/N=C(c3ccccc3)N(C3=NNC4(C(=O)N3)c3ccccc3-c3ccccc34)NC2=O)ccc1O", "TGI": "56.8 µg/mL"}
{"compound": "C[C@]12CC[C@H](O)CC1=CC[C@@H]1[C@@H]2CC[C@]2(C)/C(=N/OCCN3CCCC3)CC[C@@H]12", "TGI": "93.6 µM"}
{"compound": "COc1ccc(CN2c3ccccc3CCc3ccccc32)cc1F", "TGI": "> 100 µM"}
{"compound": "O=C(NCCCNCCNC(=O)c1cc(-c2ccccc2)nc2ccccc12)c1cc(-c2ccccc2)nc2ccccc12", "TGI": "3.24 µM"}
{"compound": "COC(=O)CCC1=C(C)/C(=C/c2[nH]c(-c3ccc[nH]3)cc2OC)N=C1C", "TGI": "18.1 µM"}
{"compound": "Nc1nc(CCC(=O)Nc2cccc(C(F)(F)F)c2)cc(-c2ccc3ccccc3c2)n1", "TGI": "> 100 µM"}
{"compound": "COc1ccccc1Nc1nc(NNC(=O)Cc2ccccc2)nc(NNC(=O)c2ccncc2)n1", "TGI": "> 10 µM"}
{"compound": "CSc1cc(N)ccc1N=Nc1ccc(S(N)(=O)=O)cc1", "TGI": "> 100 µM"}
{"compound": "NC(=O)c1ccc(C2C3=C(CCCC3=O)OC3=C2C(=O)c2ccccc2C3=O)cc1 (configuration not stated)", "TGI": "1.17 µM"}
{"compound": "O=C1CCC(O)=C1O", "TGI": "> 100 µM"}
{"compound": "CCOC(=O)COS(=O)(=O)C(F)(F)F", "TGI": "> 100 µM"}
{"compound": "CCOC(=O)[C@H]1Nc2ccc(OC)cc2C2c3ccccc3CC21 (some centres not stated)", "TGI": "> 100 µM"}
{"compound": "Nc1ccc2[nH]c(C(=O)N3CC(CCl)c4c3cc(N)c3ccccc43)cc2c1 (configuration not stated)", "TGI": "0.0325 µM"}
{"compound": "N#CC(NNC(=O)c1ccccc1O)c1cccc(O)c1 (configuration not stated)", "TGI": "> 100 µM"}
{"compound": "COC(=O)CCCCCN=Cc1c(O)c(O)c(C(C)C)c2cc(C)c(-c3c(C)cc4c(C(C)C)c(O)c(O)c(C=NCCCCCC(=O)OC)c4c3O)c(O)c12", "TGI": "> 32.5 µM"}
{"compound": "CCN(CC)C1CC(n2cc(C)c(=O)[nH]c2=O)OC1CO (configuration not stated)", "TGI": "> 100 µM"}

----------
test system: T-47D breast; assay: NCI tumour cell line growth inhibition, 48 h
result-type: TGI

{"compound": "CC(=O)O[C@H]1C(=O)[C@@]2(C)[C@H]([C@H](OC(=O)c3ccccc3)[C@]3(O)C[C@H](OC(=O)[C@H](O)[C@@H](NC(=O)CC(C)(C)C)c4ccccc4)C(C)=C1C3(C)C)C1(OC(C)=O)CO[C@@H]1C[C@@H]2O (some centres not stated)", "assay-target": "T-47D breast", "test-result": "> 10 µM"}
{"compound": "NNC(=S)N1CCN(C(=S)NN)CC1", "assay-target": "T-47D breast", "test-result": "> 100 µM"}
{"compound": "COC(=O)[C@@H]1C[C@@]2(C3C=CN(C(=O)C(F)(F)F)C=C3)c3ccccc3N(C(=O)C(F)(F)F)[C@H]2N1C(=O)OC", "assay-target": "T-47D breast", "test-result": "> 100 µM"}
{"compound": "COc1c(C)c(OC)c2c(c1O)[C@@H]1[C@@H]3Cc4c(OC)c(C)c(OC)c(O)c4[C@H](CNC(=O)c4cnc5ccccc5n4)N3[C@@H](C#N)[C@H](C2)N1C", "assay-target": "T-47D breast", "test-result": "0.00676 µM"}
{"compound": "COC(=O)CCC1=C(C)/C(=C/c2[nH]c(-c3ccc[nH]3)cc2OC)N=C1C", "assay-target": "T-47D breast", "test-result": "1.86 µM"}
{"compound": "Cc1c(-c2ccccc2)c(C#N)c2nnc(C(N)=O)c(N)n12", "assay-target": "T-47D breast", "test-result": "> 100 µM"}
{"compound": "CCCCCCN(CCCCCC)CC(O)c1ccc2c3c(cccc13)CC2 (configuration not stated)", "assay-target": "T-47D breast", "test-result": "16.6 µM"}
